# System: BT-474
# methodNotes: normalised response (% of control), CellTiter-Glo; higher = more viable cells (100 = DMSO, 0 = benzethonium chloride kill control)
# conditionParameters: incubation time: 72 h
// normalised response lookup, one value per entry
propertyLabel: normalised response (%)

> print(dat)
                                   compound  measurednumber
1  CCNC(=O)c1noc(-c2cc(C(C)C)c(O)cc2O)c1-c1ccc(CN2CCOCC2)cc1 [NVP-AUY922] (0.1 nM)             113
2     CN(C)C(=N)NC(=N)N [Metformin] (10 nM)            92.3
3  CC(C)n1cnc2c(NCCc3ccc(O)cc3)nc(-c3csc4ccccc34)nc21 [StemRegenin 1] (10 nM)             105
4  CN(Cc1cnc2nc(N)nc(N)c2n1)c1ccc(C(=O)N[C@@H](CCC(=O)O)C(=O)O)cc1 [Methotrexate] (5000 nM)            78.1
5  CC[C@H](CO)Nc1nc(NCc2ccccc2)c2ncn(C(C)C)c2n1 [Seliciclib] (10 nM)             102
6  CCNC(=O)CCC/C=C\C[C@@H]1[C@@H](/C=C/[C@@H](O)CCc2ccccc2)[C@H](O)C[C@@H]1O [Bimatoprost] (5.5 nM)            96.6
7  Cn1cc(C2=C(c3cn(C4CCN(Cc5ccccn5)CC4)c4ccccc34)C(=O)NC2=O)c2ccccc21 [Enzastaurin] (1 nM)            96.4
8  CC[C@H](CO)Nc1nc(NCc2ccccc2)c2ncn(C(C)C)c2n1 [Seliciclib] (1 nM)             100

###

# Test system: CAL-51
# methodNotes: drug sensitivity score (DSS), CellTiter-Glo (DSS (AUC-based score)); higher = stronger drug effect (viability inhibition or cytotoxicity); extreme values may be limits of the assay
# conditionParameters: incubation time: 72 h
propertyLabel: drug sensitivity score

molecule	systemTested	propertyLabel	measuredNumber
CC(C)n1cnc2c(NCCc3ccc(O)cc3)nc(-c3csc4ccccc34)nc21	CAL-51	drug sensitivity score	0
CN(Cc1cnc2nc(N)nc(N)c2n1)c1ccc(C(=O)N[C@@H](CCC(=O)O)C(=O)O)cc1 [Methotrexate]	CAL-51	drug sensitivity score	16.2
CC[C@H](CO)Nc1nc(NCc2ccccc2)c2ncn(C(C)C)c2n1	CAL-51	drug sensitivity score	2.74
O=[N+]([O-])c1ccc2c(c1)S(=O)(=O)C=C2	CAL-51	drug sensitivity score	18.1
CCn1c(C(=O)N(C2CC2)C2CC2)cc2c3c(ncn3C)c(Nc3cc(C)n(C)n3)nc21	CAL-51	drug sensitivity score	0
CC(C)C[C@H](NC(=O)[C@@H](COC(C)(C)C)NC(=O)[C@H](Cc1ccc(O)cc1)NC(=O)[C@H](CO)NC(=O)[C@H](Cc1c[nH]c2ccccc12)NC(=O)[C@H](Cc1cnc[nH]1)NC(=O)[C@@H]1CCC(=O)N1)C(=O)N[C@@H](CCCNC(=N)N)C(=O)N1CCC[C@H]1C(=O)NNC(N)=O	CAL-51	drug sensitivity score	0

###

# Test system: CAL-148
# methodNotes: drug sensitivity score (DSS), CellTiter-Blue viability (DSS (AUC-based score)); higher = stronger viability inhibition; extreme values may be limits of the assay
# conditionParameters: incubation time: 72 h
propertyLabel: drug sensitivity score

> print(dat)
                                   molecule  measurednumber
1  CC[C@H](CO)Nc1nc(NCc2ccccc2)c2ncn(C(C)C)c2n1               0
2  CN(Cc1cnc2nc(N)nc(N)c2n1)c1ccc(C(=O)N[C@@H](CCC(=O)O)C(=O)O)cc1 [Methotrexate]            9.98
3  CC(O)(CS(=O)(=O)c1ccc(F)cc1)C(=O)Nc1ccc(C#N)c(C(F)(F)F)c1 (configuration not stated) [Bicalutamide]               0
4  CO[C@@]12[C@H](COC(N)=O)C3=C(C(=O)C(C)=C(N)C3=O)N1C[C@@H]1N[C@@H]12            5.96
5  Nc1ccn([C@@H]2O[C@H](CO)[C@@H](O)C2(F)F)c(=O)n1            16.9
6  C/C(=C\c1csc(C)n1)[C@@H]1C[C@@H]2O[C@]2(C)CCC[C@H](C)[C@H](O)[C@@H](C)C(=O)C(C)(C)[C@@H](O)CC(=O)N1 [Ixabepilone]            2.58
7  C=CCN(/C=C1/C(=O)O[C@H](COC)[C@@]2(C)C1=C(O)C(=O)C1=C2[C@H](OC(C)=O)C[C@]2(C)C(=O)CC[C@@H]12)CC=C               0
